assay: HepG2 cell viability effects, profiling panel, calcein-AM fluorescence, 48 h, basal (AID 1164); conditions: higher = more signal; note: test concentration not given here
observable: z-score
Form rule: numeric answer, no unit written next to it.

Recorded results for 3 compounds are shown here.
| compound | z-score |
| --- | --- |
| CCCN1C(=O)[C@@]2(c3ccc([N+](=O)[O-])cc3)CC(=O)N(C3CCCCC3)[C@@H]2c2ccc(CO)cc21 | -0.574 |
| CCOC(=O)C=C1C[C@@H](c2cccc([N+](=O)[O-])c2)O[C@@H](c2cccc([N+](=O)[O-])c2)O1 | 0.177 |
| COc1c(C)cc(-c2nc(-c3ccccc3)c3c(c2C)CO[Si]3(C(C)C)C(C)C)cc1C | -0.518 |

The recorded z-score for entry Cc1ccc(S(=O)(=O)N2[C@@H](c3ccccc3)C(C(=O)O)=CC[C@H]2c2ccc(F)cc2)cc1 equals -0.73
